protocol: chemical genetic growth profiling, strain panel (AID 1159580);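 note: tested at 20 µM; growth read once vehicle control cultures reached saturation at 30 °C; 1 = growth at the plate median or of vehicle wells; lower values mean less growth of the strain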
conditionParameters: S. cerevisiae deletion strains, growth OD, locus YBR171W, strain sec66
Out of some 5,500 compounds screened, about 2,000 (36%) were called active. About 18% were inconclusive and are not listed. Cut-off read from the data, not from the text of the source: active = normalized growth mostly below about 0.91 (no sharp cut-off); inconclusive = no clear call, values can overlap the other calls; inactive = mostly above about 0.92. The list shows a part of the results.
Your response should consist of one outcome taken from Y = active, N = inactive

**Q:** Please indicate how the test categorized `O=C(O)CCCCCCCC(=O)O` .
**A:** N

**Q:** How was `Oc1c(Cl)cc(Cl)c(Cl)c1Cc1c(O)c(Cl)cc(Cl)c1Cl` classified in this test?
**A:** Y

----------
protocol: chemical genetic growth profiling, strain panel (AID 1159580)
conditionParameters: S. cerevisiae deletion strains, growth OD, locus YNL153C, strain GIM3, hits give low values
About 2,000 (36%) of roughly 5,500 compounds were called active. Roughly 18% stayed inconclusive and do not appear here. This is one part of the list.
attributeMeasured: normalized growth

Example entries begin here.
{"molecule": "Cc1cccc(C)c1NC(=O)C1CCCCN1C (configuration not stated)", "normalized growth": "1.01 (inactive)"}
{"molecule": "O=C(O)C(O)C(O)C(=O)O (configuration not stated)", "normalized growth": "0.979 (inactive)"}
{"molecule": "NC(N)=NC(N)=Nc1ccccc1C(F)(F)F", "normalized growth": "1.02 (inactive)"}

**Q:** Value lookup for normalized growth; key = `CCOC(=O)CNc1ccc(Cl)c(Cl)c1`
**A:** 0.962 (inactive)

**Q:** May I ask what normalized growth has been recorded for CC(=O)C1CC[C@H]2C3CC[C@H]4C[C@H](O)CC[C@]4(C)C3CC[C@]12C (some centres not stated) ?
**A:** 0.985 (inactive)

**Q:** What normalized growth value was documented for this molecule, NCC[C@@H](O)C(=O)N[C@@H]1C[C@H](N)[C@@H](O[C@H]2O[C@H](CN)[C@@H](O)[C@H](O)[C@H]2O)[C@H](O)[C@H]1O[C@H]1O[C@H](CO)[C@@H](O)[C@H](N)C1O (some centres not stated) ?
**A:** 0.996 (inactive)

**Q:** Value lookup for normalized growth; key = `c1ccc(CN2CCC3(CCCc4ccccc43)CC2)cc1`
**A:** 0.817 (inactive)

**Q:** Looking for the measured normalized growth of `Brc1ccc([C@H]2CN3CCSC3=N2)cc1` , can you help?
**A:** 0.997 (inactive)

**Q:** Data request, read-out normalized growth, for COC(=O)[C@@H]1OC(=O)C2OC23[C@@]1(C)CCC1[C@@]2(C)CCC(=O)C(C)(C)C2C[C@@H](OC(C)=O)[C@]13C (some centres not stated)
**A:** 1.06 (inactive)

**Q:** Would you kindly share the measured normalized growth for `Cc1cc(/C=C/c2ccc3cc(N(C)C)ccc3[n+]2C)c(C)n1-c1ccccc1` ?
**A:** 0.709 (active)

**Q:** Dear colleague, I am looking for the recorded normalized growth of the following molecule: `c1ccc2c(CC3=NCCN3)cccc2c1`
**A:** 1 (inactive)

**Q:** Returns the measured normalized growth for the input molecule. Input: `CN1CCC[C@@H]1CCO[C@](C)(c1ccccc1)c1ccc(Cl)cc1`
**A:** 1 (inactive)

----------
protocol: chemical genetic growth profiling, strain panel (AID 1159580)
conditionParameters: S. cerevisiae deletion strains, growth OD, locus YDR101C, strain arx1, hits give low values
Out of some 5,500 compounds screened, about 2,000 (36%) were called active. Not shown: some 18% with an inconclusive outcome. The list shows a part of the results.
// reported normalized growth per item
Please state the value as a number alone, without comment.

Example cases with answers are listed next.
{"molecule": "O=C(O)C1CCCNC1 (centres undefined)", "normalized growth": 1.02}
{"molecule": "COC[C@]12CN(C=O)C3[C@@H]4[C@H](OC)C1[C@]3(C1CC3(O)C(OC)C(O)C4(OC(C)=O)C1C3OC(=O)c1ccccc1)[C@@H](OC)C[C@H]2O (some centres undefined)", "normalized growth": 0.99}
{"molecule": "CN1CCC[C@@H]1CCO[C@](C)(c1ccccc1)c1ccc(Cl)cc1", "normalized growth": 0.988}

**Q:** Would you kindly share the measured normalized growth for CC(=O)O[C@H]1C[C@@]2(C)[C@@H](C[C@@H](O)C3[C@]2(C)CC[C@H]2[C@H](C)[C@H](O)CC[C@]32C)/C1=C(/CCC=C(C)C)C(=O)O (some centres undefined) ?
**A:** 1.02

----------
protocol: chemical genetic growth profiling, strain panel (AID 1159580);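 note: tested at 20 µM; growth read once vehicle control cultures reached saturation at 30 °C; 1 = growth at the plate median or of vehicle wells; lower values mean less growth of the strain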
conditionParameters: S. cerevisiae deletion strains, growth OD, locus YLR384C, strain iki3, hits give low values
About 2,000 (36%) of roughly 5,500 compounds were called active. Inconclusive results (about 18%) are left out. Some of the results follow.
This section presents compounds with their documented normalized growth values.
Kindly provide the number alone.

Consider the worked cases shown below.
{"compound": "CC(=O)O[C@@H]1CC2C(C)(C)[C@@H](O)CC[C@]2(C)C2CC[C@@]3(C)[C@H](c4ccoc4)OC(=O)[C@H]4O[C@]43[C@@]21C (stereo not given in full)", "normalized growth": 0.992}
{"compound": "NC1(C(=O)O)CC1", "normalized growth": 1.01}
{"compound": "C=C[C@@]1(C)CC(=O)[C@@]2(O)[C@](C)(O1)[C@@H](OC(C)=O)[C@@H](O)C1C(C)(C)CC[C@H](O)[C@@]12C (stereo not given in full)", "normalized growth": 0.993}

**Q:** Quick check: normalized growth of `COC(=O)[C@H](c1ccccc1Cl)N1CCc2sccc2C1` ?
**A:** 0.975

**Q:** normalized growth lookup needed for `CCCn1c(=O)c2[nH]c(C3CCCC3)nc2n(CCC)c1=O` , thanks.
**A:** 0.995

----------
protocol: chemical genetic growth profiling, strain panel (AID 1159580);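 note: tested at 20 µM; growth read once vehicle control cultures reached saturation at 30 °C; 1 = growth at the plate median or of vehicle wells; lower values mean less growth of the strain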
conditionParameters: S. cerevisiae deletion strains, growth OD, locus YER167W, strain BCK2, hits give low values
The whole screen tested about 5,500 compounds, of which about 2,000 (36%) were called active. About 18% were inconclusive and are not listed. The list shows a part of the results.
attributeMeasured: normalized growth
Reply with the value as a number alone.

Some entries whose results are on file:
{"compound": "NC1(C(=O)O)CCCC1", "valueReported": 1.01}
{"compound": "Cc1ccc(C(=O)c2ccc(CC(=O)O)n2C)cc1", "valueReported": 0.998}
{"compound": "CCCn1c(=O)c2[nH]c(C3CCCC3)nc2n(CCC)c1=O", "valueReported": 0.971}
{"compound": "Cc1onc(-c2ccccc2)c1-c1ccc(S(N)(=O)=O)cc1", "valueReported": 1}
{"compound": "CCCCCCCCCCCC(=O)OCC(COP(=O)(O)OCC(O)COP(=O)(O)OCC(COC(=O)CCCCCCCCCCC)OC(=O)CCCCCCCCCCC)OC(=O)CCCCCCCCCCC (centres undefined)", "valueReported": 0.953}
{"compound": "NCC[C@@H](O)C(=O)N[C@@H]1C[C@H](N)[C@@H](O[C@H]2O[C@H](CN)[C@@H](O)[C@H](O)[C@H]2O)[C@H](O)[C@H]1O[C@H]1O[C@H](CO)[C@@H](O)[C@H](N)C1O (some centres undefined)", "valueReported": 0.986}
{"compound": "NC1(C(=O)O)CCC1", "valueReported": 0.952}
{"compound": "CN1CCC[C@@H]1CCO[C@](C)(c1ccccc1)c1ccc(Cl)cc1", "valueReported": 1}

Now turn to the next compound.
**Q:** # get_value(readout='normalized growth', item= `CC(C)c1nc(N(C)S(C)(=O)=O)nc(-c2ccc(F)cc2)c1/C=C/[C@@H](O)C[C@@H](O)CC(=O)O` )
**A:** 1

----------
protocol: chemical genetic growth profiling, strain panel (AID 1159580);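 note: tested at 20 µM; growth read once vehicle control cultures reached saturation at 30 °C; 1 = growth at the plate median or of vehicle wells; lower values mean less growth of the strain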
conditionParameters: S. cerevisiae deletion strains, growth OD, locus YLR027C, strain aat2, hits give low values
In all, about 5,500 compounds went through this assay and about 2,000 (36%) were called active. Roughly 18% stayed inconclusive and do not appear here. The list shows a part of the results.
attributeMeasured: normalized growth
// response body must contain only the number

Previously resolved entries follow.
{"compound": "Clc1ccccc1CN1CCc2sccc2C1", "normalized growth": 1.01}
{"compound": "COC(=O)[C@H](c1ccccc1Cl)N1CCc2sccc2C1", "normalized growth": 0.983}
{"compound": "O=C(O)COc1ccc(Cl)cc1Cl", "normalized growth": 0.993}
{"compound": "COC1C=CC23c4cc5c(cc4CN(CC2O)[C@@H]3C1)OCO5 (stereo partly drawn)", "normalized growth": 0.991}
{"compound": "CC(O)(P(=O)(O)O)P(=O)(O)O", "normalized growth": 0.999}

**Q:** Can you share its normalized growth? I mean this compound: CC1[C@H](C)OC(=O)CC(O)CC(O)CC(O)CCC(O)C(O)C[C@]2(O)CC(O)C(C(=O)O)C(CC(OC3O[C@H](C)[C@@H](O)[C@H](N)[C@@H]3O)/C=C/C=C/C=C/C=C/CC/C=C/C=C/[C@H](C)[C@H]1O)O2 (stereo partly drawn)
**A:** 0.633

**Q:** Item CC1OC(O[C@H]2/C=C/C=C/C=C/C=C/C=C/C=C/C=C/[C@H](C)[C@@H](O)[C@@H](C)[C@H](C)OC(=O)CC(O)CC(O)CCC(O)C(O)CC(O)C[C@]3(O)C[C@H](O)C(C(=O)O)C(C2)O3)C(O)[C@H](N)C1O (stereo partly drawn) has what recorded normalized growth?
**A:** 0.0727

**Q:** Any idea what its normalized growth is? The compound is `CC(C)c1nc(N(C)S(C)(=O)=O)nc(-c2ccc(F)cc2)c1/C=C/[C@@H](O)C[C@@H](O)CC(=O)O`
**A:** 1.01
